# TARGET_OR_TEST_SYSTEM: T1, biotinylated tau 2N4R (Homo sapiens, UniProt P10636-8, biotin (N-hydroxysuccimide-biotin conjugates, 5 M excess))
# T1 construct: tau protein, 2N4R isoform, NCBI NP_005901.2; Expressed from pET15b-tau; also called full-length tau; source: E. coli BL21 (DE3), purified (heating, cation exchange), then biotinylated
# T1 sequence (P10636 other isoform, or with tags, fused parts or gaps): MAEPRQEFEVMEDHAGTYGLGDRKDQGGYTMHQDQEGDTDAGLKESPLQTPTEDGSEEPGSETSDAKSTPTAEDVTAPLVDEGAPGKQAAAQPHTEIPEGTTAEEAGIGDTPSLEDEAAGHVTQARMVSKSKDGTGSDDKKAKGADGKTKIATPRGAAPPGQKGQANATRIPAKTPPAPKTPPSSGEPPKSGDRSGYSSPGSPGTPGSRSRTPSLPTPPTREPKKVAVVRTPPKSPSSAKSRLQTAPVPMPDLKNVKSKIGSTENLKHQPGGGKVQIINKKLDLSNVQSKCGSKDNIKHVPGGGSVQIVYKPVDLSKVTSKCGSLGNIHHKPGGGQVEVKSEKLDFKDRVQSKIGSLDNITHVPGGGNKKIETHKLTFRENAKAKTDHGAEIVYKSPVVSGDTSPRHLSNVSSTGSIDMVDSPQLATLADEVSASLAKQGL
# ASSAY_OVERVIEW: SPR; biotinylated tau 2N4R captured on a streptavidin chip (500 RU); VHHs as analytes, 0.125-2 uM, single-cycle kinetics; HBS-EP+ buffer; 1:1 Langmuir model; Kd calculated as koff/kon
# EXPERIMENTAL_PARAMETERS: both partners purified
Measured Kd, listed per entry.
Report only the number, with the unit nM understood.

Solved entries (count: 4):
VHH Z70 mutant 12 (S23C + G115E) (VHH, as the chain of m1 (VHH Z70); also called Mut12; source: E. coli BL21 (DE3), periplasm, purified (IMAC, SEC)) VHH: EVQLQASGGVFVQSGGSLRLCCAASGATSTFDGMGWFRQAPGKEREFVSAISYEQGSYTYYADSVKGRFTISRDNSKNMVYLQMNSLRAEDTATYYCAPAYEGDLYAFDSYGEQGTQVTVSS = 61.2
VHH Z70 mutant 1 (G115E) (VHH, as the chain of m1 (VHH Z70); also called Mut1; source: E. coli BL21 (DE3), periplasm, purified (IMAC, SEC)) VHH: EVQLQASGGVFVQSGGSLRLSCAASGATSTFDGMGWFRQAPGKEREFVSAISYEQGSYTYYADSVKGRFTISRDNSKNMVYLQMNSLRAEDTATYYCAPAYEGDLYAFDSYGEQGTQVTVSS = 22.7
VHH Z70 mutant 5 (T96S) (VHH, as the chain of m1 (VHH Z70); also called Mut5; source: E. coli BL21 (DE3), periplasm, purified (IMAC, SEC)) VHH: EVQLQASGGVFVQSGGSLRLSCAASGATSTFDGMGWFRQAPGKEREFVSAISYEQGSYTYYADSVKGRFTISRDNSKNMVYLQMNSLRAEDTASYYCAPAYEGDLYAFDSYGGQGTQVTVSS = 80.8
VHH Z70 (VHH, VHH Z70; also in PDB 7QCQ; also called parent VHH; source: E. coli BL21 (DE3), periplasm, purified (IMAC, SEC)) VHH: EVQLQASGGVFVQSGGSLRLSCAASGATSTFDGMGWFRQAPGKEREFVSAISYEQGSYTYYADSVKGRFTISRDNSKNMVYLQMNSLRAEDTATYYCAPAYEGDLYAFDSYGGQGTQVTVSS = 148

Let us move to another entry and its Kd.
Prompt: Suppose we examine the binder VHH Z70 mutant 9 (P101S + G115E) (VHH, as the chain of m1 (VHH Z70); also called Mut9; source: E. coli BL21 (DE3), periplasm, purified (IMAC, SEC)) VHH: EVQLQASGGVFVQSGGSLRLSCAASGATSTFDGMGWFRQAPGKEREFVSAISYEQGSYTYYADSVKGRFTISRDNSKNMVYLQMNSLRAEDTATYYCASAYEGDLYAFDSYGEQGTQVTVSS ; what Kd value has been reported?
Completion: 51.1
